Experimental Conditions: in methanol, 293.15 K
Metric: solubility (mole fraction)
I only need the number, thanks.

Name the reported solubility (mole fraction) value associated with the molecule O=C1OC(=O)[C@H]2[C@@H]1[C@@H]1C=C[C@H]2C1
0.00781

---

Experimental Conditions: in n-butyl acetate, 288.15 K
Metric: solubility (mole fraction)
I'd appreciate a reply containing only the number, no unit.

Find the recorded solubility (mole fraction) belonging to O=C1OC(=O)[C@H]2[C@@H]1[C@@H]1C=C[C@H]2C1 and report it.
0.031

---

Experimental Conditions: in methyl acetate, 298.15 K
Metric: solubility (mole fraction)
Write the number on its own, no unit after it.

Dear colleague, I am looking for the recorded solubility (mole fraction) of the following compound: O=C1OC(=O)[C@H]2[C@@H]1[C@@H]1C=C[C@H]2C1
0.0644

---

Experimental Conditions: in isobutyl acetate, 283.15 K
Metric: solubility (mole fraction)
Respond numerically, and do not add a unit to the figure.

What does the record list as solubility (mole fraction) for O=C1OC(=O)[C@H]2[C@@H]1[C@@H]1C=C[C@H]2C1 ?
0.0236

---

Experimental Conditions: in isobutyl acetate, 303.15 K
Metric: solubility (mole fraction)
Field format: numeric only.

Endpoint output: solubility (mole fraction) of O=C1OC(=O)[C@H]2[C@@H]1[C@@H]1C=C[C@H]2C1 . Value?
0.0468

The reported numbers originate from BigSolDB 2.1.
